molecular target: human Cereblon WT GST-tagged protein (CRBN) (Homo sapiens); construct: purchased CISBIO 64BDCRBNPEH; experiment: CRBN binding by HTRF (Cereblon binding kit); conditions: 0.5 μM, read-out: Inhibition Rate at 0.5 μM (%)
Sequence (Q96SW2 whole entry): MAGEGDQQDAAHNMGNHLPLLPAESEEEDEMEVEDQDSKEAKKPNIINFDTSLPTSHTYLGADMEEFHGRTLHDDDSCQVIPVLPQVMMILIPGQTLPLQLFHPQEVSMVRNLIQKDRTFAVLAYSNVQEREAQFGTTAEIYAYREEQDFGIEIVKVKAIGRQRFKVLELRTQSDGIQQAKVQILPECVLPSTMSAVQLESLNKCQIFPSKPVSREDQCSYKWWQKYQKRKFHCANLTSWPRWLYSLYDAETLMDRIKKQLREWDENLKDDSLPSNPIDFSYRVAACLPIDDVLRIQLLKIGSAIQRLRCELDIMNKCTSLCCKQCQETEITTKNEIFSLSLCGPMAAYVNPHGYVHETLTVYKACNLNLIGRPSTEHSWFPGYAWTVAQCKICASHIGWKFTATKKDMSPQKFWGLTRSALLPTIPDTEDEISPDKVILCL
reported_metric: inhibition at 0.5 µM

{"molecule": "COC1CCN(c2nccc(Nc3cc4c(cn3)c(N3CCC(N(C)CC5CCN(c6cccc7c6C(=O)N(N6CCC(=O)NC6=O)C7=O)CC5)CC3)nn4C(C)C)n2)CC1 [GT-06119]", "tested_on": "human Cereblon WT GST-tagged protein (CRBN) (Homo sapiens)", "inhibition at 0.5 µM": "10 to 20%"}
{"molecule": "Cc1nc2c(F)cc(-c3nc(Nc4ccc(CN5CCN(CC6CCN(c7ccc8c(c7)C(=O)N(N7CCC(=O)NC7=O)C8=O)CC6)CC5)cn4)ncc3F)cc2n1C(C)C [GT-06662]", "tested_on": "human Cereblon WT GST-tagged protein (CRBN) (Homo sapiens)", "inhibition at 0.5 µM": "30 to 40%"}
{"molecule": "CNC(=O)c1ccccc1Nc1cc(Nc2ccc(N3CCN(Cc4ccc5c(c4)CN(N4CCC(=O)NC4=O)C5=O)CC3)cc2OC)ncc1C(F)(F)F [GT-07660]", "tested_on": "human Cereblon WT GST-tagged protein (CRBN) (Homo sapiens)", "inhibition at 0.5 µM": "30 to 40%"}
{"molecule": "C[C@@H]1CNC(=O)c2cc3ccc(C(=O)Nc4cnn(Cc5ccc(N6CCN(Cc7ccc8c(c7)CN(N7CCC(=O)NC7=O)C8=O)CC6)cc5)c4)nc3n21 [GT-08149]", "tested_on": "human Cereblon WT GST-tagged protein (CRBN) (Homo sapiens)", "inhibition at 0.5 µM": "20 to 30%"}
{"molecule": "Cc1cc(-c2ccc3c4cnccc4n(C)c3c2)cnc1N1CCN(Cc2ccc3c(c2)CN(N2CCC(=O)NC2=O)C3=O)CC1 [GT-08540]", "tested_on": "human Cereblon WT GST-tagged protein (CRBN) (Homo sapiens)", "inhibition at 0.5 µM": "10 to 20%"}

Switching to the query record.
## Input Report its inhibition at 0.5 µM with human Cereblon WT GST-tagged protein (CRBN) (Homo sapiens) as the test system: Nc1ncnc2c1c(-c1ccc(Oc3ccccc3)cc1)nn2C1CCN(CC2CCN(C3CCN(c4ccc5c(c4)C(=O)N(N4CCC(=O)NC4=O)C5=O)CC3)CC2)CC1 [GT-05096]
## Output 10 to 20%
